Reference for the values: ChEMBL document CHEMBL1132478

Target: Alpha-1D adrenergic receptor (Homo sapiens, UniProt P25100)
Sequence (P25100 whole entry): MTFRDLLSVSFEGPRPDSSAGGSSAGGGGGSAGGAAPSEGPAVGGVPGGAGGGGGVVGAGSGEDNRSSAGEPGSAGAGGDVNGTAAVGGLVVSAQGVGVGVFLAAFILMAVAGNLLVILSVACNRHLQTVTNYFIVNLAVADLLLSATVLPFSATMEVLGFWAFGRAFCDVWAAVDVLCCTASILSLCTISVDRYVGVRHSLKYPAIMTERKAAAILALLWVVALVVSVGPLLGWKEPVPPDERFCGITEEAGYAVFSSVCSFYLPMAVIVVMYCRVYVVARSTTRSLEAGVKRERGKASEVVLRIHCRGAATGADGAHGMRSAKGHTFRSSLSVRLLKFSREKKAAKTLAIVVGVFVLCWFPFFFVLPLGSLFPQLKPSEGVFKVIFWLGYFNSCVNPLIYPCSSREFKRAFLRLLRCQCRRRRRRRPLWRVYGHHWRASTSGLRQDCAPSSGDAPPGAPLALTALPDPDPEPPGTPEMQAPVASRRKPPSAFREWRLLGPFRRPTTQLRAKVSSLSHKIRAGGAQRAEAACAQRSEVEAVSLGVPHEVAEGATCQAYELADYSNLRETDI
Assay: In vitro binding affinity against Alpha-1D adrenergic receptor at recombinant human receptor.
Conditions: in the assay text read “at recombinant human receptor” for “of human liver microsomes”
pKi: −log10 of the molar value.
test.readout: pKi

Here are 6 molecules together with their reported answers.
COC(=O)C1=C(C)NC(=O)N(C(=O)NCCCN2CCN(c3ccc(C(C)=O)cc3)CC2)C1c1ccc(F)c(F)c1 (stereo unspecified): 5.74
COC(=O)C1=C(C)NC(=O)N(C(=O)NCCCN2CCN(c3ccc(Cl)cc3)CC2)C1c1ccc(F)c(F)c1 (stereo unspecified): 7.28
COC(=O)C1=C(C)NC(=O)N(C(=O)NCCCN2CCN(c3ccccc3[N+](=O)[O-])C[C@@H]2C)C1c1ccc(F)c(F)c1 (stereo partly specified): 7.47
COC(=O)C1=C(C)NC(=O)N(C(=O)NCCCN2CCN(c3ccccc3O)CC2)C1c1ccc(F)c(F)c1 (stereo unspecified): 7.51
COC(=O)C1=C(C)NC(=O)N(C(=O)NCCCN2CCN(c3ccccc3C)CC2)C1c1ccc(F)c(F)c1 (stereo unspecified): 8.01
COC(=O)C1=C(C)NC(=O)N(C(=O)NCCCN2CCN(c3ccccc3Cl)CC2)C1c1ccc(F)c(F)c1 (stereo unspecified): 7.85

I. COC(=O)C1=C(C)NC(=O)N(C(=O)NCCCN2CCN(c3ccccc3C(N)=O)CC2)C1c1cc(F)c(F)c(F)c1 (stereo unspecified)
II. COC(=O)C1=C(C)NC(=O)N(C(=O)NCCCN2CCN(c3ccccc3[N+](=O)[O-])CC2)C1c1ccc(F)c(F)c1 (stereo unspecified)
III. COC(=O)C1=C(C)NC(=O)N(C(=O)NCCCN2CCN(c3cccc([N+](=O)[O-])c3)CC2)C1c1ccc(F)c(F)c1 (stereo unspecified)
IV. COC(=O)C1=C(C)NC(=O)N(C(=O)NCCCN2CCN(c3ccc(OC)cc3C)CC2)C1c1ccc(F)c(F)c1 (stereo unspecified)
Thanks in advance: please rank these 4 entries by pKi, highest to lowest. Put the labels in the requested order and write them down.
II, I, III, IV
(II: 7.49, I: 6.85, III: 6.47, IV: 6.21)

* * *

Biological target: Alpha-1D adrenergic receptor (Homo sapiens, UniProt P25100)
Sequence (P25100 whole entry): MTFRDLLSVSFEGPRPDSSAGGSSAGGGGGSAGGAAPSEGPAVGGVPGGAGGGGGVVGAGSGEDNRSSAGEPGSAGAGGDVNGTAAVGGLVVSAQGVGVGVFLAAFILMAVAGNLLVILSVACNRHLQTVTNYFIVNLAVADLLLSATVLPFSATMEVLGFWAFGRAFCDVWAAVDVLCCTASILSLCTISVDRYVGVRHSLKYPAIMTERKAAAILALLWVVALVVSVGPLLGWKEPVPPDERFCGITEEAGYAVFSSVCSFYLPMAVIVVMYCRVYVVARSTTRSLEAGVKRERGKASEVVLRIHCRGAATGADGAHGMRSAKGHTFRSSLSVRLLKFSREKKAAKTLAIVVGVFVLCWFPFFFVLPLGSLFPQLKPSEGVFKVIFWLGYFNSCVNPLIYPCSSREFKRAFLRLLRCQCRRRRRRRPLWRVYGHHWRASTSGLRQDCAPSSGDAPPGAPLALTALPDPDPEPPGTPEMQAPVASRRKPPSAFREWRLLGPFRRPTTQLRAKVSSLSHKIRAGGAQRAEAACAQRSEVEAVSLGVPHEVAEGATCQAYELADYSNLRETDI
Test: In vitro binding affinity against Alpha-1D adrenergic receptor at recombinant human receptor.
Settings: in the assay text read “at recombinant human receptor” for “of human liver microsomes”
pKi: −log10 of the molar value.
test.readout: pKi

CC(=O)C1=C(C)NC(=O)N(C(=O)NCCCN2CCN(c3ccccc3C(N)=O)CC2)C1c1cc(F)c(F)c(F)c1 (stereo not drawn): 6.41
CC(=O)C1=C(C)NC(=O)N(C(=O)NCCCN2CCN(c3ccccc3C(N)=O)CC2)C1c1ccc(F)c(F)c1 (stereo not drawn): 6.54
COC(=O)C1=C(C)NC(=O)N(C(=O)NCCCN2CCN(c3ccc(OC)cc3)CC2)C1c1ccc(F)c(F)c1 (stereo not drawn): 6.32
COCC1=C(C(=O)OC)C(c2ccc(F)c(F)c2)N(C(=O)NCCCN2CCN(c3ccccc3C(N)=O)CC2)C(=O)N1 (stereo not drawn): 6.85
COC(=O)C1=C(C)NC(=O)N(C(=O)NCCCN2CCN(c3ccccc3)CC2)C1c1ccc(F)c(F)c1 (stereo not drawn): 7.68
COC(=O)C1=C(C)NC(=O)N(C(=O)NCCCN2CCN(c3cccc(C(F)(F)F)c3)CC2)C1c1ccc(F)c(F)c1 (stereo not drawn): 6.92

A. CCC1=C(C(=O)OC)C(c2ccc(F)cc2F)N(C(=O)NCCCN2CCN(c3ccccc3C(N)=O)CC2)C(=O)N1 (stereo not drawn)
B. CCC1=C(C(N)=O)C(c2ccc(F)cc2F)N(C(=O)NCCCN2CCN(c3ccccc3C(N)=O)CC2)C(=O)N1 (stereo not drawn)
Hey, which is lower on measured pKi, A or B ? Your answer should be the label attached to the chosen record.
B

* * *

Assay: oral bioavailability in dog
Format: ADME, organism-based, Canis lupus familiaris
Settings: in vivo
test.readout: bioavailability (%)
State just the number; it will be interpreted in %.

Look up and state reported bioavailability for COC(=O)C1=C(C)NC(=O)N(C(=O)NCCCN2CCN(c3ccccc3C(N)=O)CC2)C1c1ccc(F)c(F)c1 (stereo unspecified)
4

* * *

Biological target: Alpha-1A adrenergic receptor (Homo sapiens, UniProt P35348)
Sequence (P35348 whole entry): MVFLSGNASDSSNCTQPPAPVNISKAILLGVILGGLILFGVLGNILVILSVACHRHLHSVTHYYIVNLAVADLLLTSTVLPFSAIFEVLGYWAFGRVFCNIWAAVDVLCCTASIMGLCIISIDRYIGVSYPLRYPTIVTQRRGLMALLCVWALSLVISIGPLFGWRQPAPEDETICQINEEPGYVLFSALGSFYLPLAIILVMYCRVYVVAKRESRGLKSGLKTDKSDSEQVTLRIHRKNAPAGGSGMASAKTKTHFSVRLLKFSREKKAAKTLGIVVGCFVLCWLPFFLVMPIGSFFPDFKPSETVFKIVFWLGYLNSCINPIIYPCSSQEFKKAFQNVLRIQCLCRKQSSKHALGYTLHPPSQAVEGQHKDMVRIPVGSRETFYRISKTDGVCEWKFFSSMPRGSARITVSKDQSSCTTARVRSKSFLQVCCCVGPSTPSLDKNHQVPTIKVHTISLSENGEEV
test.readout: Ki (nM)

a. COC(=O)C1=C(C)NC(=O)N(C(=O)NCCCN2CCN(c3ccccc3O)CC2)C1c1ccc(F)c(F)c1 (centres undefined)
b. CC(=O)C1=C(C)NC(=O)N(C(=O)NCCCN2CCN(c3ccccc3C(N)=O)CC2)C1c1cc(F)c(F)c(F)c1 (centres undefined)
c. CCC1=C(C(=O)OC)C(c2ccc(F)cc2F)N(C(=O)NCCCN2CCN(c3ccccc3C(N)=O)CC2)C(=O)N1 (centres undefined)
d. COC(=O)C1=C(C)NC(=O)N(C(=O)NCCCN2CCN(c3ccccc3C(=O)OC)CC2)C1c1ccc(F)c(F)c1 (centres undefined)
Going from lowest to highest recorded Ki, rank the entries listed above. Put the labels in the requested order and write them down.
c, d, b, a
(c: 0.1 nM, d: 0.2 nM, b: 0.4 nM, a: 0.6 nM)

* * *

Assay: oral bioavailability in rat
Type: ADME, organism-based
Settings: in vivo
test.readout: bioavailability (%)
State just the number; it will be interpreted in %.

Look up and state reported bioavailability for COC(=O)C1=C(C)NC(=O)N(C(=O)NCCCN2CCN(c3ccccc3C(N)=O)CC2)C1c1ccc(F)c(F)c1 (stereo unspecified)
13
